molecular target: human CB1 (Homo sapiens, UniProt P21554); assay: [35S]GTPγS binding in P2 membranes of HEK293 cells expressing hCB1; type: biochemical; conditions: [35S]-GTPγS efficacy ranking
Sequence (P21554 whole entry): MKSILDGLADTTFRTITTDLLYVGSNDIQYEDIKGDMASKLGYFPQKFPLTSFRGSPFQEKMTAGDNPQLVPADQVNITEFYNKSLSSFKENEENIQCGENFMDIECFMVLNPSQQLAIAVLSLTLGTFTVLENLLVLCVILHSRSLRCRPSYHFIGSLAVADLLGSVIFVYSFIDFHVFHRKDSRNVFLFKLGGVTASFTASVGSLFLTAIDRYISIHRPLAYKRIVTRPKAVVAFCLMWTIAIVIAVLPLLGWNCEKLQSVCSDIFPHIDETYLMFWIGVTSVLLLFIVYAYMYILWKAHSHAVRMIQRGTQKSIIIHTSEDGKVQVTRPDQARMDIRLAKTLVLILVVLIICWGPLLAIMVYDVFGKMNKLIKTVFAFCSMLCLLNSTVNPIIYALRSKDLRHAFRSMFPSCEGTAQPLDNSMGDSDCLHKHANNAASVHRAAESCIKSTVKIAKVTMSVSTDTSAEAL
PROPERTY_NAME: Rank order efficacy

1. O=C(c1ccc2c(c1)c1ccccc1n2CCCCCO)c1cccc2ccccc12; 12
2. O=C(c1ccc2c(c1)c1ccccc1n2CCN1CCOCC1)c1cc2ccccc2[nH]1; 6
3. Cc1ccc(C(=O)c2ccc3c(c2)c2ccccc2n3CCN2CCOCC2)c2ccccc12; 8
4. O=C(c1ccc2c(c1)c1ccccc1n2CCN1CCOCC1)c1ccnc2ccccc12; 10

###

target: human CB1 (Homo sapiens, UniProt P21554); test: [35S]GTPγS binding in P2 membranes of HEK293 cells expressing hCB1; assay type: biochemical; details: read-out: E MAX (±SEM), %
This listing pairs compounds with measured Emax.
PROPERTY_NAME: Emax

1) O=C(c1ccc2c(c1)c1ccccc1n2CCN1CCOCC1)c1cc2ccccc2[nH]1; 123%
2) Cc1ccc(C(=O)c2ccc3c(c2)c2ccccc2n3CCN2CCOCC2)c2ccccc12; 106%
3) O=C(c1ccc2c(c1)c1ccccc1n2CCCCCO)c1cccc2ccccc12; 81.9%
4) O=C(c1ccc2c(c1)c1ccccc1n2CCN1CCOCC1)c1ccnc2ccccc12; 88.2%

###

Listed next: entries and their corresponding pEC50.
molecular target: human CB1 (Homo sapiens, UniProt P21554); test: Inhibition of FSK-stimulated cAMP; type: cell-based
pEC50: −log10 of the molar value.
PROPERTY_NAME: pEC50

1. Cc1ccc(C(=O)c2ccc3c(c2)c2ccccc2n3CCN2CCOCC2)c2ccccc12; 7.08
2. O=C(c1ccc2c(c1)c1ccccc1n2CCCCCO)c1cccc2ccccc12; 6.83
3. O=C(c1ccc2c(c1)c1ccccc1n2CCN1CCOCC1)c1cc2ccccc2[nH]1; 5.92
4. O=C(c1ccc2c(c1)c1ccccc1n2CCN1CCOCC1)c1cc2ccccc2o1; 6.45
5. O=C(c1ccc2c(c1)c1ccccc1n2CCN1CCOCC1)c1ccnc2ccccc12; 7.04
